Consider the following variants; for each one, report its protein stability index.
B1: FLOT1 (parent)
chain: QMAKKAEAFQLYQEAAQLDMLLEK

variants of: B1; assay: protein stability index of a GFP-peptide fusion (GPS, HEK-293T) (PSI 1-6); higher = more stable; details: c terminus: a fixed tail appended;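 further: lentivirally expressed fusions sorted by FACS into six bins by GFP to DsRed ratio, PSI derived from sequencing read proportions per bin multiplied by bin number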
Answers are plain numbers.

# per-item lookup of protein stability index; items listed below
1. L11V
2. L21Y
3. Q1P
4. K24T

Given back:
[2.98, 2.04, 2.05, 3.03]
